Origin of measurements: patent US20220348651A1

In this section, each of the binders is paired with its reported EC50.
system-under-test: T1, human ENTPD2 expressed on cells (human, UniProt Q9Y5L3 1-495)
T1 construct: full-length human ENTPD2 on engineered cells; also called NIH3T3 humanENTPD2; NIH/3T3-hENTPD2
T1 sequence: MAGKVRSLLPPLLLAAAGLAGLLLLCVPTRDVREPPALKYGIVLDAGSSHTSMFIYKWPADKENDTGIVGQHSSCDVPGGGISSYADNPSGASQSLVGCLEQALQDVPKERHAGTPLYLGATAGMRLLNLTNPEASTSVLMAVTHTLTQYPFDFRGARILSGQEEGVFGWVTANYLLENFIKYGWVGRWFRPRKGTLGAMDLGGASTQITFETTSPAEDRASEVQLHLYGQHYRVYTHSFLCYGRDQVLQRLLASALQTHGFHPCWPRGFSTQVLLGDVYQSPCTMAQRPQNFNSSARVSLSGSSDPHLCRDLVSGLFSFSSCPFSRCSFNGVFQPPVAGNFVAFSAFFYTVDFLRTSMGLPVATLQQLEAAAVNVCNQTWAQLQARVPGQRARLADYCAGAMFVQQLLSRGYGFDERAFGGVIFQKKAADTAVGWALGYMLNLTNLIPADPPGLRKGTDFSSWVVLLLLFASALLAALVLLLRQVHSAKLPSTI
experimental-protocol: flow cytometry, NIH3T3 human ENTPD2 cells
Write it as a number; the unit nM goes unstated.

Before answering, review these 3 worked examples.
binder	measurement-type	endpoint-unit	endpoint-value
ANTI-HUMAN ENTPD2 MAB9 (antibody, human IgG1, lambda, V domains shown, also called Anti-ENTPD2 mAb9) VH: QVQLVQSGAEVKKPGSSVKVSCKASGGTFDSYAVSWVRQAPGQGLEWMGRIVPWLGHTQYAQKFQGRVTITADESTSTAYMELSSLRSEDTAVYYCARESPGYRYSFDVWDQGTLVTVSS VL: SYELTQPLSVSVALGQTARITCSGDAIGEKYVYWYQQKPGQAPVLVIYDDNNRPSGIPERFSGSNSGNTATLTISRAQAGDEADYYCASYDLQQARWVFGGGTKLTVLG	EC50	nM	0.6
ANTI-HUMAN ENTPD2 MAB3 (antibody, human IgG1, kappa, V domains shown, humanized from mAb17; human IgG1, kappa; also called Anti-ENTPD2 mAb3) VH: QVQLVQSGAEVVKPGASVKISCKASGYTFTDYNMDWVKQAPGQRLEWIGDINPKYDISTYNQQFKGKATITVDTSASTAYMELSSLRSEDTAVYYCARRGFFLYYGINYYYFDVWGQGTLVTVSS VL: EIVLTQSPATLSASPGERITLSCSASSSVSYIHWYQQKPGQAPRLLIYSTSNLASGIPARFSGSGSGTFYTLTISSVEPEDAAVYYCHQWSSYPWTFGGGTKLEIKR	EC50	nM	2.8
ANTI-HUMAN ENTPD2 MAB4 (antibody, human IgG1, kappa, V domains shown, humanized and optimized from mAb16; human IgG1, kappa; also called Anti-ENTPD2 mAb4) VH: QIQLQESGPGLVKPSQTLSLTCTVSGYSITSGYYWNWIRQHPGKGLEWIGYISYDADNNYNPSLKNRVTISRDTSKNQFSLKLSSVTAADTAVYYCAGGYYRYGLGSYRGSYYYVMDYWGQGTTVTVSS VL: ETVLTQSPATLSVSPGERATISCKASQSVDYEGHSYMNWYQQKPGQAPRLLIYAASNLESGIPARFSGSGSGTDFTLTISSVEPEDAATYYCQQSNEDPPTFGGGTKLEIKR	EC50	nM	0.9

Query: Please supply the value of reported EC50 for the item ANTI-HUMAN ENTPD2 MAB8 (antibody, human IgG1, lambda, V domains shown, also called Anti-ENTPD2 mAb8) VH: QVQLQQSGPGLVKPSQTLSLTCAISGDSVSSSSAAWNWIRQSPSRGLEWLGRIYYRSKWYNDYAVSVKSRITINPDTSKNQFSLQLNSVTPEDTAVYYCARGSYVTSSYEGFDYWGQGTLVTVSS VL: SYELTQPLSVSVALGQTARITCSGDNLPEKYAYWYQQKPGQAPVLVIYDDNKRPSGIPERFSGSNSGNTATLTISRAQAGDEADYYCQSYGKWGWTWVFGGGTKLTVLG
Result: 0.6

Query: Give reported EC50 value for ANTI-HUMAN ENTPD2 MAB5 (antibody, human IgG1, kappa, V domains shown, humanized and optimized from mAb16; human IgG1, kappa; also called Anti-ENTPD2 mAb5) VH: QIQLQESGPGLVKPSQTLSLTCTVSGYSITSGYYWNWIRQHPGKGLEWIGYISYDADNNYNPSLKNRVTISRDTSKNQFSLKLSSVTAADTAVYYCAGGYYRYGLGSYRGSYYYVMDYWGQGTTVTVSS VL: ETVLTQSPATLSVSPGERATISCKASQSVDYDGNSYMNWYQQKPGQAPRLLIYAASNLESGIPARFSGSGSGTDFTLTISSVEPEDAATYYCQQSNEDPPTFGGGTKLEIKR
Result: 0.9
